Below, each entry is listed with its recorded self-cleavage kobs at 640 uM GlcN6P.
B1: glmS ribozyme (parent)
chain: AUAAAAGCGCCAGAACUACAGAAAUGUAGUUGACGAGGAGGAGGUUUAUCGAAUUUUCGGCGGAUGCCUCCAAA

# Variants of: B1
# assayRemarks: self-cleavage kobs at 640 uM GlcN6P; higher = faster cleavage; RNA array
# experimentalParameters: with glucosamine-6-phosphate
Variants at the floor of the assay were thinned out.
assayMetric: self-cleavage kobs at 640 uM GlcN6P (s⁻¹)

[[record]]
mutantid = "G7U A33C"
assaymetric = "self-cleavage kobs at 640 uM GlcN6P"
qual = "<"
obsvalue = "1e-05"

[[record]]
mutantid = "A12G G38C C68G"
assaymetric = "self-cleavage kobs at 640 uM GlcN6P"
qual = "<"
obsvalue = "1e-05"

[[record]]
mutantid = "A42C C67U C71G"
assaymetric = "self-cleavage kobs at 640 uM GlcN6P"
qual = "<"
obsvalue = "1e-05"

[[record]]
mutantid = "C16A A42C C71U"
assaymetric = "self-cleavage kobs at 640 uM GlcN6P"
qual = "<"
obsvalue = "1e-05"

[[record]]
mutantid = "U56G G59C"
assaymetric = "self-cleavage kobs at 640 uM GlcN6P"
qual = "<"
obsvalue = "1e-05"

[[record]]
mutantid = "G7C G9C A36G G51C"
assaymetric = "self-cleavage kobs at 640 uM GlcN6P"
qual = "<"
obsvalue = "1e-05"

[[record]]
mutantid = "C16U A42U"
assaymetric = "self-cleavage kobs at 640 uM GlcN6P"
qual = "="
obsvalue = "4.79e-05"

[[record]]
mutantid = "G40C A53C"
assaymetric = "self-cleavage kobs at 640 uM GlcN6P"
qual = "="
obsvalue = 0.000176

[[record]]
mutantid = "U46A U56C"
assaymetric = "self-cleavage kobs at 640 uM GlcN6P"
qual = "="
obsvalue = 0.000158

[[record]]
mutantid = "A33U C70U"
assaymetric = "self-cleavage kobs at 640 uM GlcN6P"
qual = "="
obsvalue = "3.24e-05"

[[record]]
mutantid = "U54A C67G"
assaymetric = "self-cleavage kobs at 640 uM GlcN6P"
qual = "="
obsvalue = 0.000297

[[record]]
mutantid = "U54G U69G"
assaymetric = "self-cleavage kobs at 640 uM GlcN6P"
qual = "="
obsvalue = "9.61e-05"

[[record]]
mutantid = "G41A C67G C70U"
assaymetric = "self-cleavage kobs at 640 uM GlcN6P"
qual = "="
obsvalue = 0.000188

[[record]]
mutantid = "A53U C67A"
assaymetric = "self-cleavage kobs at 640 uM GlcN6P"
qual = "="
obsvalue = 0.0014

[[record]]
mutantid = "G32C U49G"
assaymetric = "self-cleavage kobs at 640 uM GlcN6P"
qual = "<"
obsvalue = "1e-05"

[[record]]
mutantid = "A39U G41U U47A A52C"
assaymetric = "self-cleavage kobs at 640 uM GlcN6P"
qual = "<"
obsvalue = "1e-05"

[[record]]
mutantid = "U30G C34A C68A"
assaymetric = "self-cleavage kobs at 640 uM GlcN6P"
qual = "<"
obsvalue = "1e-05"

[[record]]
mutantid = "C16U U69C"
assaymetric = "self-cleavage kobs at 640 uM GlcN6P"
qual = "="
obsvalue = 0.000778

[[record]]
mutantid = "A48G C50U A52U C70G"
assaymetric = "self-cleavage kobs at 640 uM GlcN6P"
qual = "="
obsvalue = "4.03e-05"

[[record]]
mutantid = "G29C C70G"
assaymetric = "self-cleavage kobs at 640 uM GlcN6P"
qual = "="
obsvalue = "8e-05"

[[record]]
mutantid = "A12G U49A G63U"
assaymetric = "self-cleavage kobs at 640 uM GlcN6P"
qual = "<"
obsvalue = "1e-05"

[[record]]
mutantid = "G29A U54G"
assaymetric = "self-cleavage kobs at 640 uM GlcN6P"
qual = "="
obsvalue = 0.000767

[[record]]
mutantid = "G9U U47A"
assaymetric = "self-cleavage kobs at 640 uM GlcN6P"
qual = "<"
obsvalue = "1e-05"

[[record]]
mutantid = "A6C A12C A39C C67U"
assaymetric = "self-cleavage kobs at 640 uM GlcN6P"
qual = "<"
obsvalue = "1e-05"

[[record]]
mutantid = "G32U G43U G44U G60A"
assaymetric = "self-cleavage kobs at 640 uM GlcN6P"
qual = "<"
obsvalue = "1e-05"

[[record]]
mutantid = "A6C U30A C67G"
assaymetric = "self-cleavage kobs at 640 uM GlcN6P"
qual = "<"
obsvalue = "1e-05"

[[record]]
mutantid = "A36U A39G U45G C61U G62C"
assaymetric = "self-cleavage kobs at 640 uM GlcN6P"
qual = "<"
obsvalue = "1e-05"

[[record]]
mutantid = "A15G C16G U55A"
assaymetric = "self-cleavage kobs at 640 uM GlcN6P"
qual = "="
obsvalue = 0.000405

[[record]]
mutantid = "G40A U45A C70U"
assaymetric = "self-cleavage kobs at 640 uM GlcN6P"
qual = "="
obsvalue = "4.7e-05"

[[record]]
mutantid = "A36U C70G"
assaymetric = "self-cleavage kobs at 640 uM GlcN6P"
qual = "="
obsvalue = 0.000403

[[record]]
mutantid = "G9A G38A G51A"
assaymetric = "self-cleavage kobs at 640 uM GlcN6P"
qual = "<"
obsvalue = "1e-05"

[[record]]
mutantid = "A14G U46A"
assaymetric = "self-cleavage kobs at 640 uM GlcN6P"
qual = "="
obsvalue = 0.00157

[[record]]
mutantid = "G35C A48C"
assaymetric = "self-cleavage kobs at 640 uM GlcN6P"
qual = "<"
obsvalue = "1e-05"

[[record]]
mutantid = "C8U G29A U31A G37U A52G C71G"
assaymetric = "self-cleavage kobs at 640 uM GlcN6P"
qual = "="
obsvalue = 0.0078

[[record]]
mutantid = "A39C A48C U55C C58U"
assaymetric = "self-cleavage kobs at 640 uM GlcN6P"
qual = "<"
obsvalue = "1e-05"

[[record]]
mutantid = "C11U U55A"
assaymetric = "self-cleavage kobs at 640 uM GlcN6P"
qual = "="
obsvalue = 0.000478

[[record]]
mutantid = "C8A G38C C71A"
assaymetric = "self-cleavage kobs at 640 uM GlcN6P"
qual = "<"
obsvalue = "1e-05"

[[record]]
mutantid = "G7C U46C"
assaymetric = "self-cleavage kobs at 640 uM GlcN6P"
qual = "<"
obsvalue = "1e-05"

[[record]]
mutantid = "U30G G40A"
assaymetric = "self-cleavage kobs at 640 uM GlcN6P"
qual = "="
obsvalue = 0.000261

[[record]]
mutantid = "C8U A14U G37U G41U"
assaymetric = "self-cleavage kobs at 640 uM GlcN6P"
qual = "<"
obsvalue = "1e-05"

[[record]]
mutantid = "A15U C50G"
assaymetric = "self-cleavage kobs at 640 uM GlcN6P"
qual = "="
obsvalue = 0.000494

[[record]]
mutantid = "A42G G43U"
assaymetric = "self-cleavage kobs at 640 uM GlcN6P"
qual = "<"
obsvalue = "1e-05"

[[record]]
mutantid = "U30C C68G"
assaymetric = "self-cleavage kobs at 640 uM GlcN6P"
qual = "="
obsvalue = "8.37e-05"

[[record]]
mutantid = "G35U C61U"
assaymetric = "self-cleavage kobs at 640 uM GlcN6P"
qual = "<"
obsvalue = "1e-05"

[[record]]
mutantid = "G66U C68U"
assaymetric = "self-cleavage kobs at 640 uM GlcN6P"
qual = "="
obsvalue = 0.000116

[[record]]
mutantid = "C16U A53G"
assaymetric = "self-cleavage kobs at 640 uM GlcN6P"
qual = "="
obsvalue = 0.0112

[[record]]
mutantid = "G7U U45C"
assaymetric = "self-cleavage kobs at 640 uM GlcN6P"
qual = "<"
obsvalue = "1e-05"

[[record]]
mutantid = "C10U C50G"
assaymetric = "self-cleavage kobs at 640 uM GlcN6P"
qual = "="
obsvalue = 0.000136

[[record]]
mutantid = "C11U A42G"
assaymetric = "self-cleavage kobs at 640 uM GlcN6P"
qual = "="
obsvalue = 0.000561

[[record]]
mutantid = "G37A C61A"
assaymetric = "self-cleavage kobs at 640 uM GlcN6P"
qual = "<"
obsvalue = "1e-05"

[[record]]
mutantid = "U49G G60U"
assaymetric = "self-cleavage kobs at 640 uM GlcN6P"
qual = "<"
obsvalue = "1e-05"

[[record]]
mutantid = "G35C G38A U69G"
assaymetric = "self-cleavage kobs at 640 uM GlcN6P"
qual = "="
obsvalue = 0.00083

[[record]]
mutantid = "A15U U49G"
assaymetric = "self-cleavage kobs at 640 uM GlcN6P"
qual = "="
obsvalue = "2.05e-05"

[[record]]
mutantid = "U46C C71U"
assaymetric = "self-cleavage kobs at 640 uM GlcN6P"
qual = "="
obsvalue = 0.00126

[[record]]
mutantid = "A39C C70U"
assaymetric = "self-cleavage kobs at 640 uM GlcN6P"
qual = "="
obsvalue = 0.00019

[[record]]
mutantid = "G38C A42G U49G A52G G63C"
assaymetric = "self-cleavage kobs at 640 uM GlcN6P"
qual = "<"
obsvalue = "1e-05"

[[record]]
mutantid = "G29C U45G"
assaymetric = "self-cleavage kobs at 640 uM GlcN6P"
qual = "="
obsvalue = "6.1e-05"

[[record]]
mutantid = "C16U A53G C70A"
assaymetric = "self-cleavage kobs at 640 uM GlcN6P"
qual = "="
obsvalue = 0.000224

[[record]]
mutantid = "A36U U46A"
assaymetric = "self-cleavage kobs at 640 uM GlcN6P"
qual = "<"
obsvalue = "1e-05"

[[record]]
mutantid = "C34A A42U"
assaymetric = "self-cleavage kobs at 640 uM GlcN6P"
qual = "<"
obsvalue = "1e-05"

[[record]]
mutantid = "C16A C67A"
assaymetric = "self-cleavage kobs at 640 uM GlcN6P"
qual = "="
obsvalue = 0.000123

[[record]]
mutantid = "A12U A39C U56G"
assaymetric = "self-cleavage kobs at 640 uM GlcN6P"
qual = "="
obsvalue = 0.000287

[[record]]
mutantid = "C11A G32A G66U"
assaymetric = "self-cleavage kobs at 640 uM GlcN6P"
qual = "<"
obsvalue = "1e-05"

[[record]]
mutantid = "U31A C67A"
assaymetric = "self-cleavage kobs at 640 uM GlcN6P"
qual = "="
obsvalue = 0.000764

[[record]]
mutantid = "A6U A39U C70U"
assaymetric = "self-cleavage kobs at 640 uM GlcN6P"
qual = "="
obsvalue = "3.98e-05"

[[record]]
mutantid = "U54G C71G"
assaymetric = "self-cleavage kobs at 640 uM GlcN6P"
qual = "="
obsvalue = 0.000398

[[record]]
mutantid = "U55A A64G C71A"
assaymetric = "self-cleavage kobs at 640 uM GlcN6P"
qual = "="
obsvalue = 0.000572

[[record]]
mutantid = "G7C C16U G32C G43A C50U"
assaymetric = "self-cleavage kobs at 640 uM GlcN6P"
qual = "<"
obsvalue = "1e-05"

[[record]]
mutantid = "C16G U55A"
assaymetric = "self-cleavage kobs at 640 uM GlcN6P"
qual = "="
obsvalue = 0.000819

[[record]]
mutantid = "G44A C67G"
assaymetric = "self-cleavage kobs at 640 uM GlcN6P"
qual = "="
obsvalue = 0.000128

[[record]]
mutantid = "U55G U56A G60U C71U"
assaymetric = "self-cleavage kobs at 640 uM GlcN6P"
qual = "<"
obsvalue = "1e-05"

[[record]]
mutantid = "A39C C58G G63U U65A C71G"
assaymetric = "self-cleavage kobs at 640 uM GlcN6P"
qual = "<"
obsvalue = "1e-05"

[[record]]
mutantid = "U31C G35A"
assaymetric = "self-cleavage kobs at 640 uM GlcN6P"
qual = "<"
obsvalue = "1e-05"

[[record]]
mutantid = "A15G G66U C71U"
assaymetric = "self-cleavage kobs at 640 uM GlcN6P"
qual = "="
obsvalue = 0.000559

[[record]]
mutantid = "G9A G37A"
assaymetric = "self-cleavage kobs at 640 uM GlcN6P"
qual = "<"
obsvalue = "1e-05"

[[record]]
mutantid = "U46G U54A"
assaymetric = "self-cleavage kobs at 640 uM GlcN6P"
qual = "="
obsvalue = 0.00207

[[record]]
mutantid = "G37A C50A C61G"
assaymetric = "self-cleavage kobs at 640 uM GlcN6P"
qual = "<"
obsvalue = "1e-05"

[[record]]
mutantid = "C10U U46A U49A G62A"
assaymetric = "self-cleavage kobs at 640 uM GlcN6P"
qual = "<"
obsvalue = "1e-05"

[[record]]
mutantid = "A15C G35U G41A U65C C68A"
assaymetric = "self-cleavage kobs at 640 uM GlcN6P"
qual = "<"
obsvalue = "1e-05"

[[record]]
mutantid = "A12U"
assaymetric = "self-cleavage kobs at 640 uM GlcN6P"
qual = "="
obsvalue = 0.0283

